B1: library; a variant is named by its letters at X, in order (parent)
chain: MNIQIGELAKRTACPVVTIRFYEQEGLLPPPGRSRGNFRLYGEEHVERLQFIRHCRSLDMPLSXVRTLLSYRKRPDQDCGEVXMLLDEHXRQVESRIGALLELXHXLVELREACSGARPAQSCGILQGLSDCVCDTRGTTAHXSD

# Variants of: B1
# ASSAY_METHOD_TEXT: sfGFP reporter fluorescence (15 h) (µM FITC); higher = higher leak
# RUN_CONDITIONS: library round: Round 3b; ligand: none
Label rule, in plain words: sfGFP reporter fluorescence of 0.05 and up is YES, under 0.05 is NO.

For orientation, consider the following solved cases.
{"SEQUENCE_ENTRY": "MNIQIGELAKRTACPVVTIRFYEQEGLLPPPGRSRGNFRLYGEEHVERLQFIRHCRSLDMPLSKVRTLLSYRKRPDQDCGEVFMLLDEHIRQVESRIGALLELVHHLVELREACSGARPAQSCGILQGLSDCVCDTRGTTAHTSD [KFIVHT]", "LABEL_CLASS": "YES"}
{"SEQUENCE_ENTRY": "MNIQIGELAKRTACPVVTIRFYEQEGLLPPPGRSRGNFRLYGEEHVERLQFIRHCRSLDMPLSKVRTLLSYRKRPDQDCGEVIMLLDEHARQVESRIGALLELKHELVELREACSGARPAQSCGILQGLSDCVCDTRGTTAHPSD [KIAKEP]", "LABEL_CLASS": "YES"}
{"SEQUENCE_ENTRY": "MNIQIGELAKRTACPVVTIRFYEQEGLLPPPGRSRGNFRLYGEEHVERLQFIRHCRSLDMPLSKVRTLLSYRKRPDQDCGEVIMLLDEHARQVESRIGALLELVHHLVELREACSGARPAQSCGILQGLSDCVCDTRGTTAHTSD [KIAVHT]", "LABEL_CLASS": "YES"}
{"SEQUENCE_ENTRY": "MNIQIGELAKRTACPVVTIRFYEQEGLLPPPGRSRGNFRLYGEEHVERLQFIRHCRSLDMPLSKVRTLLSYRKRPDQDCGEVNMLLDEHIRQVESRIGALLELVHALVELREACSGARPAQSCGILQGLSDCVCDTRGTTAHTSD [KNIVAT]", "LABEL_CLASS": "YES"}
{"SEQUENCE_ENTRY": "MNIQIGELAKRTACPVVTIRFYEQEGLLPPPGRSRGNFRLYGEEHVERLQFIRHCRSLDMPLSDVRTLLSYRKRPDQDCGEVIMLLDEHIRQVESRIGALLELTHALVELREACSGARPAQSCGILQGLSDCVCDTRGTTAHRSD [DIITAR]", "LABEL_CLASS": "NO"}

Ask: Is sfGFP reporter fluorescence for MNIQIGELAKRTACPVVTIRFYEQEGLLPPPGRSRGNFRLYGEEHVERLQFIRHCRSLDMPLSDVRTLLSYRKRPDQDCGEVIMLLDEHARQVESRIGALLELVHELVELREACSGARPAQSCGILQGLSDCVCDTRGTTAHPSD [DIAVEP] at or above 0.05?
Result: NO

Ask: Answer whether sfGFP reporter fluorescence of MNIQIGELAKRTACPVVTIRFYEQEGLLPPPGRSRGNFRLYGEEHVERLQFIRHCRSLDMPLSKVRTLLSYRKRPDQDCGEVIMLLDEHARQVESRIGALLELVHALVELREACSGARPAQSCGILQGLSDCVCDTRGTTAHPSD [KIAVAP] is greater than or equal to 0.05.
Result: YES

Ask: Reported sfGFP reporter fluorescence reaches at least 0.05 for MNIQIGELAKRTACPVVTIRFYEQEGLLPPPGRSRGNFRLYGEEHVERLQFIRHCRSLDMPLSKVRTLLSYRKRPDQDCGEVFMLLDEHARQVESRIGALLELKHELVELREACSGARPAQSCGILQGLSDCVCDTRGTTAHPSD [KFAKEP] ?
Result: YES

Ask: Confirm if sfGFP reporter fluorescence reported for the variant MNIQIGELAKRTACPVVTIRFYEQEGLLPPPGRSRGNFRLYGEEHVERLQFIRHCRSLDMPLSDVRTLLSYRKRPDQDCGEVFMLLDEHARQVESRIGALLELTHALVELREACSGARPAQSCGILQGLSDCVCDTRGTTAHTSD [DFATAT] is 0.05 or above.
Result: NO

Ask: Please tell me: is the variant MNIQIGELAKRTACPVVTIRFYEQEGLLPPPGRSRGNFRLYGEEHVERLQFIRHCRSLDMPLSKVRTLLSYRKRPDQDCGEVNMLLDEHARQVESRIGALLELVHHLVELREACSGARPAQSCGILQGLSDCVCDTRGTTAHTSD [KNAVHT] at or over 0.05 in terms of sfGFP reporter fluorescence?
Result: YES

Ask: hey, is sfGFP reporter fluorescence for this one >= 0.05? MNIQIGELAKRTACPVVTIRFYEQEGLLPPPGRSRGNFRLYGEEHVERLQFIRHCRSLDMPLSKVRTLLSYRKRPDQDCGEVIMLLDEHARQVESRIGALLELVHELVELREACSGARPAQSCGILQGLSDCVCDTRGTTAHTSD [KIAVET]
Result: YES

Ask: Test whether the variant MNIQIGELAKRTACPVVTIRFYEQEGLLPPPGRSRGNFRLYGEEHVERLQFIRHCRSLDMPLSKVRTLLSYRKRPDQDCGEVNMLLDEHARQVESRIGALLELTHALVELREACSGARPAQSCGILQGLSDCVCDTRGTTAHPSD [KNATAP] records sfGFP reporter fluorescence of 0.05 or higher.
Result: YES
